MEASUREMENT TARGET: Serine/threonine-protein kinase MARK1 (Homo sapiens)
Sequence (Q9P0L2 whole entry): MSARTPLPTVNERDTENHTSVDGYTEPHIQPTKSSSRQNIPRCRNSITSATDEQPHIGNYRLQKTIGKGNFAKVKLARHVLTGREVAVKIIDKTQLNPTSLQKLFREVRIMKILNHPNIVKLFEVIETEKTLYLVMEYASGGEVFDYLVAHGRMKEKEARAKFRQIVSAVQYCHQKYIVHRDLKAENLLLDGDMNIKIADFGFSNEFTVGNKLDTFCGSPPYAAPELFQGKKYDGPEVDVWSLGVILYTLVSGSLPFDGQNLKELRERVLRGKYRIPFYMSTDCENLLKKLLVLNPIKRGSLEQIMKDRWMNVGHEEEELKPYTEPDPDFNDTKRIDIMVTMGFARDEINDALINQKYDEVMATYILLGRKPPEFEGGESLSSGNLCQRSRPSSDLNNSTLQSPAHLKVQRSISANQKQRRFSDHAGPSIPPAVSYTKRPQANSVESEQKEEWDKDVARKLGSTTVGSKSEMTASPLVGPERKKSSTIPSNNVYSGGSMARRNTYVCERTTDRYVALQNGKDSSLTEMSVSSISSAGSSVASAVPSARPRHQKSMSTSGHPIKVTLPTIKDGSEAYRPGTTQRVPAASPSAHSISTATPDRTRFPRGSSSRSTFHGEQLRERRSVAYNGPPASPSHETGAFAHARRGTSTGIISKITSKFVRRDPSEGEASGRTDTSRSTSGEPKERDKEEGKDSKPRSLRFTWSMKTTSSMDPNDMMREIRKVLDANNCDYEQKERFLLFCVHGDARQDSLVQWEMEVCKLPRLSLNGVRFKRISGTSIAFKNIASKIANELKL
QUANTITY: IC50 (nM)
One number for each entry, in nM.

The compound listed as CNC(=O)c1ccc(Nc2ncc(C(F)(F)F)c(NCc3nccnc3N(C)S(C)(=O)=O)n2)cc1 shows IC50 equal to 448

----------
MEASUREMENT TARGET: Cyclin-dependent kinase 2/cyclin A (Homo sapiens, UniProt P24941)
ASSAY TEXT: CDK2/cyclinA Invitrogen kinase activity assay
Type: protein-complex assay
QUANTITY: pIC50
Give bare numbers, as −log10 of the molar value.

The compound CNC(=O)c1ccc(Nc2ncc(C(F)(F)F)c(NCc3nccnc3N(C)S(C)(=O)=O)n2)cc1 showed pIC50 equal to 6.46

----------
MEASUREMENT TARGET: Sigma intracellular receptor 2 (Homo sapiens)
Sequence (Q5BJF2 whole entry): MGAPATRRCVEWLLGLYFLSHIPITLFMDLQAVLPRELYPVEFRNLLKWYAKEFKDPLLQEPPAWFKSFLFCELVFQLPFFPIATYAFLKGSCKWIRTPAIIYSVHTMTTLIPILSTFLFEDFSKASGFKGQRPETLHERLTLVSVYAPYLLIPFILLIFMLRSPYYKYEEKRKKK
ASSAY TEXT: GPCRScan assay: inhibition of Sigma 2
QUANTITY: Ki (µM)
Give bare numbers, in µM.

Sure, the documented Ki for CN(c1ccnc(CNc2nc(Nc3ccc4c(c3)CC(=O)N4)ncc2C(F)(F)F)n1)S(C)(=O)=O [PF-00911705] is 2.12

----------
MEASUREMENT TARGET: Mitogen-activated protein kinase kinase kinase 9 (Homo sapiens, UniProt P80192)
Sequence (P80192 whole entry): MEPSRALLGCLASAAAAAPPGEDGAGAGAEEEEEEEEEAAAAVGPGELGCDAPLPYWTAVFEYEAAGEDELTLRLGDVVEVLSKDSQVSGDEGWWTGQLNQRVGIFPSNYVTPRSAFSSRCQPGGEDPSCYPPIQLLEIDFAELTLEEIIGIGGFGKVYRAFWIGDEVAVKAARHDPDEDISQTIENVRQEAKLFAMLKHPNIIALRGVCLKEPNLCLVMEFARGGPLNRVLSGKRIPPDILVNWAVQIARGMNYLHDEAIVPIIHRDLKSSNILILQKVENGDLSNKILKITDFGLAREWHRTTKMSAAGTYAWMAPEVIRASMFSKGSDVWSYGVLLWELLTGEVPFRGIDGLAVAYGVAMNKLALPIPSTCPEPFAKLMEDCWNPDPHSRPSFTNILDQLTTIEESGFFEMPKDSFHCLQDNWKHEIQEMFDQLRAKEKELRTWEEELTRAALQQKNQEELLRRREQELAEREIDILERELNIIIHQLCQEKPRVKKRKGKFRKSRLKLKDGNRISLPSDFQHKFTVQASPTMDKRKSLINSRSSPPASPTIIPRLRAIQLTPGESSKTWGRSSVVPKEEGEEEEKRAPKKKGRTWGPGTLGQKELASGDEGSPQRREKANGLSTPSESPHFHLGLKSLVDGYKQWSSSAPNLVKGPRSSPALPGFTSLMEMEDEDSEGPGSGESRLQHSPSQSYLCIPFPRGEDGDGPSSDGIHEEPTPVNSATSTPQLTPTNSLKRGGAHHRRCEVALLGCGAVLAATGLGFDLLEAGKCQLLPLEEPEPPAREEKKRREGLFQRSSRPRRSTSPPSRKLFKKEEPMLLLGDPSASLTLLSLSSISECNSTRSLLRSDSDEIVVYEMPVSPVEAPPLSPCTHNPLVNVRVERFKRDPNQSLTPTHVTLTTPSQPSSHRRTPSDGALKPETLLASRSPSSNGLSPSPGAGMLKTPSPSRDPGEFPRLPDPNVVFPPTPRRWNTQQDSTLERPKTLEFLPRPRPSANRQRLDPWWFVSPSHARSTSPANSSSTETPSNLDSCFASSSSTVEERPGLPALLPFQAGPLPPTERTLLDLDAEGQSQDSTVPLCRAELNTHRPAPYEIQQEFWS
ASSAY TEXT: MAP3K9 Invitrogen kinase activity assay
QUANTITY: IC50 (nM)
One number for each entry, in nM.

IC50 in this record for CNC(=O)c1ccc(Nc2ncc(C(F)(F)F)c(NCc3nccnc3N(C)S(C)(=O)=O)n2)cc1 : 75.3

----------
MEASUREMENT TARGET: Dual specificity protein kinase CLK1 (Homo sapiens)
Sequence (P49759 whole entry): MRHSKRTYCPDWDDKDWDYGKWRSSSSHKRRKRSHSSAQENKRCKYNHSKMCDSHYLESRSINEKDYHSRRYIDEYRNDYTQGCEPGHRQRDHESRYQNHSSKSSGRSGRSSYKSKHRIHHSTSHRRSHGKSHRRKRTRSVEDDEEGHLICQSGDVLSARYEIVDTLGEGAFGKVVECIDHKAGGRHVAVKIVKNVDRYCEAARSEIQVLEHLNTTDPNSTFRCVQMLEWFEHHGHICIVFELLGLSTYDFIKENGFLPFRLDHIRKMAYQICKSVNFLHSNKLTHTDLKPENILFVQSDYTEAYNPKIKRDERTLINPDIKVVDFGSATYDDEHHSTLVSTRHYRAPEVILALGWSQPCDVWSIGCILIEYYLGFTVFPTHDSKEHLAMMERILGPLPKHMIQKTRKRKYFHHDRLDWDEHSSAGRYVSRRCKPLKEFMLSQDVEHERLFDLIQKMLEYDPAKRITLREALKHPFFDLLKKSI
QUANTITY: IC50
Note to self: number, then unit, no commentary.

Documented IC50 of CNC(=O)c1ccc(Nc2ncc(C(F)(F)F)c(NCc3nccnc3N(C)S(C)(=O)=O)n2)cc1 [DEFACTINIB] : 250 nM

----------
ASSAY TEXT: GPCRScan assay: inhibition of GABA/PBR
Design: species or system Rattus norvegicus; radioligand conc. used [nm] 0.3 – 2.0, parental cells brain tissue
QUANTITY: Ki
Give the number first and the unit second.

// field: Ki; key: CN(c1ccnc(CNc2nc(Nc3ccc4c(c3)CC(=O)N4)ncc2C(F)(F)F)n1)S(C)(=O)=O [PF-00911705] ; value = 1480 nM

----------
Target chain: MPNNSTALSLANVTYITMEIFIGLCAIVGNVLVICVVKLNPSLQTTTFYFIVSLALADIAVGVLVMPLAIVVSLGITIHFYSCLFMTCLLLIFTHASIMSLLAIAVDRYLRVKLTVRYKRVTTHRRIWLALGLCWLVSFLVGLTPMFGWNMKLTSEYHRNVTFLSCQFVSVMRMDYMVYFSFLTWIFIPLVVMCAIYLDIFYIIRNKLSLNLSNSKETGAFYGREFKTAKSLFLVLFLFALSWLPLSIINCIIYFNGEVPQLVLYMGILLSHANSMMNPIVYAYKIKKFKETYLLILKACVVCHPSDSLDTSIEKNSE
QUANTITY: Ki (nM)
Numbers only, in nM.

The molecule listed as CNC(=O)c1ccc(Nc2ncc(C(F)(F)F)c(NCc3nccnc3N(C)S(C)(=O)=O)n2)cc1 has a reported Ki of 27

----------
Target sequence: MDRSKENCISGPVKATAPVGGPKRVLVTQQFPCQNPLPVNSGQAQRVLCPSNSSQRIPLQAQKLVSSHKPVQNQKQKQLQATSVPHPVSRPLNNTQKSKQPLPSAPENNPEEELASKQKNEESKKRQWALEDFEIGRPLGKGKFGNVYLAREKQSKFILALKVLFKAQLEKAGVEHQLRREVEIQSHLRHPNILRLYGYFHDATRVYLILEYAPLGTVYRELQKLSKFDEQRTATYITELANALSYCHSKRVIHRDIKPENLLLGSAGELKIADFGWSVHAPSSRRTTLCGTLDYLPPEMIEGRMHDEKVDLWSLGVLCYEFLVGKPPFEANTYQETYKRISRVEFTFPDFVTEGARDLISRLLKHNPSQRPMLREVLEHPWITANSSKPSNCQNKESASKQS
QUANTITY: pIC50
Answers are plain numbers, as −log10 of the molar value.

Memo: CNC(=O)c1ccc(Nc2ncc(C(F)(F)F)c(NCc3nccnc3N(C)S(C)(=O)=O)n2)cc1 [DEFACTINIB] , reported pIC50: 6.87

----------
MEASUREMENT TARGET: Glycogen synthase kinase-3 beta (Homo sapiens, UniProt P49841)
Sequence (P49841 whole entry): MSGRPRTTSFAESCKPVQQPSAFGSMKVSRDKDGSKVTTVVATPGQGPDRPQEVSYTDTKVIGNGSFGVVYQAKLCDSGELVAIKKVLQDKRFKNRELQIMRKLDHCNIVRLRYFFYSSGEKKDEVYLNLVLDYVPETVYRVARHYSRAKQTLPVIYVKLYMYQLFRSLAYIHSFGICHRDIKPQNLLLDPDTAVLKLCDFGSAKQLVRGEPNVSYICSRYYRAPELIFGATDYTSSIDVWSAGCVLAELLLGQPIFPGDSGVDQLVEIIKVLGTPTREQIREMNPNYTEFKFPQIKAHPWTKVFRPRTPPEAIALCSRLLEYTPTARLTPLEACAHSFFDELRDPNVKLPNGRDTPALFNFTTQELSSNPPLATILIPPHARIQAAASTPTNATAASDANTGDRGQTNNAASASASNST
ASSAY TEXT: GSK3beta Invitrogen kinase activity assay
QUANTITY: pIC50
Give bare numbers, as −log10 of the molar value.

Summary for this molecule, CNC(=O)c1ccc(Nc2ncc(C(F)(F)F)c(NCc3nccnc3N(C)S(C)(=O)=O)n2)cc1 : pIC50 is 6.38

Source: ChEMBL document CHEMBL4507299
